Recorded MIC values for a group of compounds are listed next.
test system: A. niger MMX 0624 ATCC 16888; experiment: MIC/MEC assay (CLSI microdilution); type: cell-based; conditions: Aspergillus niger, ATCC16888, 48 h, RPMI plus 0.002% Tween-80, read-out: MIC
Numbered stars: 1 amine (or outer) side, 2 acyl side, 3 side chain; on linkers, the order of the positions; unused ones are H or OH. Square brackets hold non-standard residues; d marks the D form. Peptide text beside a SMILES is read from it. X26 = CC1CCN(c2cnc(-c3cccc(C[C@@H](C(=O)[*:2])N(C)[*:1])c3)cn2)CC1; X30 = CN([C@@H](Cc1cccc(-c2ccc(Cl)c(Cl)c2)c1)C(=O)[*:2])[*:1]; X12 = CN(C)c1cc(-c2cccc(C[C@@H](C(=O)[*:2])N(C)[*:1])c2)ccn1; X33 = CN([C@@H](Cc1cccc(-c2ccc3ccccc3c2)c1)C(=O)[*:2])[*:1]; X29 = CN([C@@H](Cc1cccc(-c2ccc(F)cc2)c1)C(=O)[*:2])[*:1]; Hmp(2R,3S) = CC[C@H](C)[C@@H](O)C(=O)O; NMeVal(β-OH) = CN[C@H](C(=O)O)C(C)(C)O; NMeV = CN[C@H](C(=O)O)C(C)C
Give a bare numeral; the unit µg/mL is implied.

CC[C@H](C)[C@@H]1NC(=O)[C@@H]2CCCN2C(=O)[C@H](Cc2cccc(-c3ccc(Cl)c(Cl)c3)c2)N(C)C(=O)[C@H](Cc2ccccc2)NC(=O)[C@H](C(C)C)N(C)C(=O)[C@@H]([C@@H](C)CC)OC(=O)[C@H](C(C)(C)O)N(C)C(=O)[C@H](CC(C)C)NC(=O)[C@H](C(C)C)N(C)C1=O [Compound 2] (cyclo(F[X30]PI[NMeV]L[NMeVal(β-OH)][Hmp(2R,3S)][NMeV])) ... 0.5
CC[C@H](C)[C@@H]1NC(=O)[C@@H]2CCCN2C(=O)[C@H](Cc2cccc(-c3ccc(F)cc3)c2)N(C)C(=O)[C@H](Cc2ccccc2)NC(=O)[C@H](C(C)C)N(C)C(=O)[C@@H]([C@@H](C)CC)OC(=O)[C@H](C(C)(C)O)N(C)C(=O)[C@H](CC(C)C)NC(=O)[C@H](C(C)C)N(C)C1=O [Compound 1] (cyclo(F[X29]PI[NMeV]L[NMeVal(β-OH)][Hmp(2R,3S)][NMeV])) ... 0.25
CC[C@H](C)[C@@H]1NC(=O)[C@@H]2CCCN2C(=O)[C@H](Cc2cccc(-c3ccc4ccccc4c3)c2)N(C)C(=O)[C@H](Cc2ccccc2)NC(=O)[C@H](C(C)C)N(C)C(=O)[C@@H]([C@@H](C)CC)OC(=O)[C@H](C(C)(C)O)N(C)C(=O)[C@H](CC(C)C)NC(=O)[C@H](C(C)C)N(C)C1=O [Compound 5] (cyclo(F[X33]PI[NMeV]L[NMeVal(β-OH)][Hmp(2R,3S)][NMeV])) ... 0.5
CC[C@H](C)[C@@H]1NC(=O)[C@@H]2CCCN2C(=O)[C@H](Cc2cccc(-c3cnc(N4CCC(C)CC4)cn3)c2)N(C)C(=O)[C@H](Cc2ccccc2)NC(=O)[C@H](C(C)C)N(C)C(=O)[C@@H]([C@@H](C)CC)OC(=O)[C@H](C(C)(C)O)N(C)C(=O)[C@H](CC(C)C)NC(=O)[C@H](C(C)C)N(C)C1=O [Compound 11] (cyclo(F[X26]PI[NMeV]L[NMeVal(β-OH)][Hmp(2R,3S)][NMeV])) ... 0.5

Moving on to the next compound.
// query I'm curious: which MIC was measured for CC[C@H](C)[C@@H]1NC(=O)[C@@H]2CCCN2C(=O)[C@H](Cc2cccc(-c3ccnc(N(C)C)c3)c2)N(C)C(=O)[C@H](Cc2ccccc2)NC(=O)[C@H](C(C)C)N(C)C(=O)[C@@H]([C@@H](C)CC)OC(=O)[C@H](C(C)(C)O)N(C)C(=O)[C@H](CC(C)C)NC(=O)[C@H](C(C)C)N(C)C1=O [Compound 22] (cyclo(F[X12]PI[NMeV]L[NMeVal(β-OH)][Hmp(2R,3S)][NMeV])) tested on A. niger MMX 0624 ATCC 16888?
// result 0.5
